The measured values listed here are drawn from patent US11760752B2.

target: BCL-XL (Homo sapiens (Human)); assay: Fluorescence polarization competition assay (FPCA), displacement of FITC-Bak from BCL-XL; assay type: binding; conditions: Table 4; FPCA data for control compounds; read-out: BCL-XL Ki
Sequence (Q07817 1-212): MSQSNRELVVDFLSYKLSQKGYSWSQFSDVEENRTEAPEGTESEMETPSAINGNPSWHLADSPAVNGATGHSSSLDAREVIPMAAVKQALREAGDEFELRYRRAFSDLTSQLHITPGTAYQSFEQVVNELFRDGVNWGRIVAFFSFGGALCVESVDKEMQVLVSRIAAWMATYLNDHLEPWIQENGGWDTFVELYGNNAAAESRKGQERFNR
Readout: pKi
Keep in mind that pKi stands for -log10 of concentration in molar terms.

Req: Supply reported pKi belonging to this molecule: Cc1cc(OCCCc2c(C(=O)O)n(C)c3cc(Cl)ccc23)cc(C)c1Cl
Resp: 5.92

----------
Target: BCL-2 (Homo sapiens (Human), UniProt P10415)
Sequence (P10415 1-211): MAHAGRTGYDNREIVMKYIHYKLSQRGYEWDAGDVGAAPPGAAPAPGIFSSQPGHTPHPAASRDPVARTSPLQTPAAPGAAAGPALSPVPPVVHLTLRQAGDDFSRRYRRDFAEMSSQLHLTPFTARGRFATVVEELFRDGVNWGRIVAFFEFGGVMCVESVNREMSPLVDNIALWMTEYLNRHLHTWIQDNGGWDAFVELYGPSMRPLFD
Assay: Fluorescence polarization competition assay (FPCA), displacement of FITC-Bak from BCL-2
Type: binding
Settings: Table 3; FITC-Bak peptide displacement; read-out: BCL-2 Affinity Ki
Protocol: These values were determined from a fluorescence polarization competition assay involving a fluorescently labeled peptide (BAK) bound to the desired Bcl-2 anti-apoptotic protein. […] The concentrated peptide stocks were prepared in DMSO and the concentration of the peptide was determined in water at pH 8.0 using the extinction coefficient for amide-linked FITC of λ494=68,000 cm^−1M^−1. […] The fluorescence polarization competition assays were setup using a Biomek FXP Automated Liquid Handling System. […]
Readout: pKi
# pKi: negative log10 of molar concentration; output just the value

For orientation, consider the following solved cases.
1) Cc1cc(Oc2ccc(Cn3nc(C(=O)NS(=O)(=O)c4ccc([N+](=O)[O-])c(NCc5cccnc5)c4)c4cc(Cl)ccc43)cc2)cc(C)c1Cl :: 6.42
2) Cc1cc(OCCCn2nc(C(=O)NS(=O)(=O)c3ccc(NCc4cccnc4)c([N+](=O)[O-])c3)c3cc(Cl)ccc32)cc(C)c1Cl :: 6.16
3) Cc1cc(OCCCn2nc(C(=O)NS(=O)(=O)c3ccc(NCc4ccco4)c([N+](=O)[O-])c3)c3cc(Cl)ccc32)cc(C)c1Cl :: 6.24

Req: In one line, give reported pKi of the entry Cc1cc(Oc2ccc(Cn3nc(C(=O)NS(=O)(=O)c4ccc([N+](=O)[O-])c(N5CCOCC5)c4)c4cc(Cl)ccc43)cc2)cc(C)c1Cl .
Resp: 6.35

Req: Identify the reported pKi for the following entry. Cc1cc(OCCCn2nc(C(=O)NS(=O)(=O)c3ccc(N4CCOCC4)c([N+](=O)[O-])c3)c3cc(Cl)ccc32)cc(C)c1Cl
Resp: 6.06

Req: Answer with reported pKi of Cc1cc(Oc2ccc(Cn3nc(C(=O)NS(=O)(=O)c4ccc(NCc5ccco5)c([N+](=O)[O-])c4)c4cc(Cl)ccc43)cc2)cc(C)c1Cl
Resp: 6.58
